Test system: IGROV1 ovarian
experimental_protocol: NCI tumour cell line growth inhibition, 48 h
property_measured: GI50

Would you please look over these solved cases?
GI50 for C/C=C/C(=O)[O-].N.N.N.N.N.[Co+3].[O-][Cl+3]([O-])([O-])[O-] ?
> 100 µM

Another compound: CC1(C)N=C(N)N=C(N)N1c1ccc(OCCCCNC(=O)c2ccc(S(=O)(=O)F)cc2)c(Cl)c1
4.78 µM

Another compound: CC[C@H](C)[C@H](NC(=O)c1nccn1C)C(=O)N(C)[C@H](C[C@@H](OC(C)=O)c1nc(C(=O)N[C@@H](Cc2ccccc2)C[C@H](C)C(=O)OC)cs1)C(C)C
0.704 µM

Another compound: O=S1(=O)CC(Br)C(Br)C1 (stereo unspecified)
10.6 µM

Another compound: COc1ccc(S(=O)(=O)n2c3ccccc3n3ncc(-c4nnc(C)o4)c23)cc1
0.634 µM

Another compound: N#CC1CCc2c(c(-c3cn[nH]c3C(F)(F)F)nc3c(F)cc4[nH]ncc4c23)C1 (stereo unspecified)
2.46 µM

Another compound: O=c1[nH]cnc2nc(-c3ccc(N(CCCl)CCCl)cc3)[nH]c12
26.9 µM

Another compound: C[C@H]1CCC/C=C/[C@@H]2C[C@H](O)C[C@H]2[C@H](O)[C@@H](SC2OC(CO)C(O)C(O)C2O)CC(=O)O1 (stereo partly specified)
> 100 µM

Another compound: O=C(O)c1ccc2cccnc2c1O
1.38 µM

Another compound: CCC(=O)OC1=CN2C(=NC(c3ccc(N)cc3)=CC2c2cc(OC)c(OC)c(OC)c2)S1 (stereo unspecified)
2.31 µM

The record that follows has no GI50 shown yet.
GI50 for CCN(CC)CCOc1nc2cc(OC)c(OC)cc2c2c1-c1ccc(OC)cc1C2=O ?
5.65 µM

---

Tested on: EKVX NSCLC
experimental_protocol: NCI tumour cell line growth inhibition, 48 h
The following molecules are shown together with reported TGI values.
Your answer is read as µM, so omit the unit and give the number.

TGI for N#CC1CCc2c(c(-c3cn[nH]c3C(F)(F)F)nc3c(F)cc4[nH]ncc4c23)C1 (centres undefined) ?
28.2

Another molecule: COC(=O)[C@@H]1O[C@]12[C@@H](CO[Si](C)(C)C(C)(C)C)O[C@@H](n1cc(C)c(=O)[nH]c1=O)[C@@H]2O[Si](C)(C)C(C)(C)C
53.6

Another molecule: COc1cc(/C=C/c2cc(/C=C/c3ccc(O)c(OC)c3)[nH]c(=O)n2)ccc1O
72.8

The record that follows has no TGI shown yet.
TGI for N#Cc1c(-c2ccc(Cl)cc2)cc(-c2nc3ccccc3[nH]2)nc1N ?
46.1

---

System: OVCAR-4 ovarian
experimental_protocol: NCI tumour cell line growth inhibition, 48 h
The following compounds are shown together with reported GI50 values.

GI50 for O[C@H](CN1CC1)[C@@H](O)CN1CC1 ?
15.4 µM

Another compound: Cc1ccc(/C=C2\CN(Cc3cn(CCNc4ccnc5cc(Cl)ccc45)nn3)C/C(=C\c3ccc(C)cc3)C2=O)cc1
1.66 µM

Another compound: N#Cc1ncc(N2C(=O)C3(CCC3)N(c3ccc(OC4CCNCC4)nc3)C2=S)cc1C(F)(F)F
18.2 µM

The record that follows has no GI50 shown yet.
GI50 for Brc1ccc2c(c1)c(-c1nc(-c3c[nH]c4ncccc34)cs1)cn2CCCN1CCCCC1 ?
2.24 µM

---

Tested on: SNB-19 CNS
experimental_protocol: NCI tumour cell line growth inhibition, 48 h
The following compounds are shown together with reported TGI values.

Under SNB-19 CNS: TGI value of CC1(C)CC(=O)C(=CN2C(=O)CNC2=S)C(=O)C1 ?
> 100 µM

Another compound: COc1cc2c(cc1O)CC[C@@H]1C2CC[C@@]2(C)C1CC[C@@H]2O (stereo not given in full)
> 100 µM

Another compound: COc1cccc2ccc3c(c12)C(=O)OC31CCc2c(C)cccc21 (stereo not given)
> 46.4 µM

Another compound: COc1cc(-c2[o+]c3cc(O)cc(OC4OC(CO)C(O)C(O)C4O)c3cc2OC2OC(CO)C(O)C(O)C2O)cc(OC)c1O (stereo not given)
> 100 µM

Another compound: CCC1OC(/C(C)=C/C(C)/C=C/C2C(C)C2/C=C/C2OC(CC(=O)O)CC(O)C2O)CC=C1C (stereo not given)
> 50 µM

Next:
Under SNB-19 CNS: TGI value of O=C(Nc1ccc(-c2ccnc(Nc3ccc(N4CCOCC4)cc3)n2)cc1)C1CCCN1 (stereo not given) ?
64.7 µM

Another compound: O=C(Nc1ccccc1C(=O)O)C(=O)C(C(=O)c1ccccc1-c1ccccc1)C1OC(=O)c2ccccc21 (stereo not given)
35.2 µM

Another compound: O=S1(=O)CC(Br)C(Br)C1 (stereo not given)
> 100 µM

Another compound: COc1cccc(C2CC(=O)c3cccn32)c1 (stereo not given)
> 100 µM

Another compound: COC(=O)/C=C\C(C#N)(C#N)N=Cc1ccsc1
27.6 µM

---

System: HCC-2998 colon
experimental_protocol: NCI tumour cell line growth inhibition, 48 h; in the data active = GI50 below about 0.43 µM; inactive = the rest
Use one of these outcomes when replying: t (active), f (inactive)

Kindly provide the recorded test outcome for the following molecule: CC(=O)O[C@H](C[C@H](C(C)C)N(C)C(=O)[C@@H](NC(=O)[C@H]1CCCCN1C)C(C)(C)C)c1nc(C(=O)N[C@@H](Cc2ccccc2)C[C@H](C)C(=O)O)cs1
t

Another molecule: N#Cc1ncc(N2C(=O)C3(CCC3)N(c3ccc(OC4CCNCC4)nc3)C2=S)cc1C(F)(F)F
f

Another molecule: Cc1cc(S(=O)(=O)Nc2nc3cc(-c4ccsc4)sc3c(=O)n2N)c(S)cc1Cl
f

---

Tested on: LOX IMVI melanoma
experimental_protocol: NCI tumour cell line growth inhibition, 48 h; in the data active = GI50 below about 0.43 µM; inactive = the rest
Use one of these outcomes when replying: yes (active), no (inactive)

Completed entries (count: 5):
Kindly provide the recorded test outcome for the following compound: C[C@H]1CC2=CC(=O)CC[C@]2(C)[C@H]2CC[C@@]3(C)[C@@H](CC[C@]3(C)O)[C@H]12
no

Another compound: C/C=C/C(=O)[O-].N.N.N.N.N.[Co+3].[O-][Cl+3]([O-])([O-])[O-]
no

Another compound: C=C1C[C@@H]2[C@H](CC[C@]3(C)C(=O)CC[C@@H]23)[C@@]2(C)C=CC(=O)C=C12
no

Another compound: CC(C)(F)C[C@H](N[C@@H](c1ccc(-c2ccc(S(C)(=O)=O)cc2)cc1)C(F)(F)F)C(=O)NC1(C#N)CC1
no

Another compound: COc1cc(/C=C/c2cc(/C=C/c3ccc(O)c(OC)c3)[nH]c(=O)n2)ccc1O
no

Next:
Kindly provide the recorded test outcome for the following compound: CC1(C)N=C(N)N=C(N)N1c1ccc(OCCCCNC(=O)c2ccc(S(=O)(=O)F)cc2)c(Cl)c1
no

Another compound: Cc1ccc2cnc(N)c(C#Cc3cncc(C(=O)Nc4ccc(CN5CCN(C)CC5)c(C(F)(F)F)c4)c3)c2c1
yes

Another compound: N#Cc1c(NCc2ccccc2)nc(NCc2ccccc2)c(C#N)c1-c1cccc(O)c1
no

Another compound: CN(C)c1ccc(N=C(C#N)c2nc(N)nc(N3CCN(c4ccccc4)CC3)n2)cc1
no

Another compound: Cc1ccc(S(=O)(=O)c2ccsc2N)cc1
no

Another compound: N#C/C(=C\c1cccnc1)c1nc2ccccc2o1
no

Another compound: Brc1ccc2c(c1)c(-c1nc(-c3c[nH]c4ncccc34)cs1)cn2CCCN1CCCCC1
no

---

Tested on: UACC-62 melanoma
experimental_protocol: NCI tumour cell line growth inhibition, 48 h
property_measured: GI50

GI50 for Cc1ccc(S(=O)(=O)c2ccsc2N)cc1 ?
> 100 µM

Another compound: CC(C)=CCC/C(C)=C/[C@H]1OC(=O)CC12C[C@H](O)C=CC2=O (stereo not given in full)
1.34 µM

Another compound: NC1CCCCC1N.O=S(=O)([O-])CCCN1CCN(CCO)CC1.O=S(=O)([O-])CCCN1CCN(CCO)CC1.[Pt+4]
6.91 µM

Another compound: CN(C)c1ccc(N=C(C#N)c2nc(N)nc(N3CCN(c4ccccc4)CC3)n2)cc1
> 50 µM

The record that follows has no GI50 shown yet.
GI50 for C=C(C)[C@@H]1CC[C@]2(C)[C@H](CC=C3[C@@H]4[C@H](C)[C@@H](C)CC[C@]4(CO)CC[C@]32C)[C@@]1(C)CCCN ?
5.82 µM

---

Test system: SR leukemia
experimental_protocol: NCI tumour cell line growth inhibition, 48 h
property_measured: TGI (µM)
Your answer is read as µM, so omit the unit and give the number.

Would you please look over these solved cases?
TGI for COc1cc(N=Nc2cccc(S(N)(=O)=O)c2)c2ccccc2c1N ?
35.8

Another compound: Cc1ccc2cnc(N)c(C#Cc3cncc(C(=O)Nc4ccc(CN5CCN(C)CC5)c(C(F)(F)F)c4)c3)c2c1
1.3

Another compound: Cc1nn(-c2ccccn2)c2c1C(SC#N)=C(C=O)CC2
34.3

Another compound: O=C(NCCCCNCCCNC(=O)OCc1ccccc1)OCc1ccccc1
92.3

Next:
TGI for N#Cc1c(NCc2ccccc2)nc(NCc2ccccc2)c(C#N)c1-c1cccc(O)c1 ?
7.48

Where these numbers come from: PubChem BioAssay (NCI)
